From: patent US11608341B2

Target: C5AR1 (Homo sapiens, UniProt P21730)
Assay: In vitro assay: antagonism of C5a-induced beta-arrestin recruitment (PathHunter) in CHO-K1 C5AR1 beta-arrestin cell line
Settings: antagonistic activity, 1-10 nM C5a agonist, geometric mean where several measurements, read-out: C5aR IC50
QUANTITY: IC50 (nM)

{"MOLECULE": "Cc1ccc(C(F)(F)F)c(CN2C(=O)N(C3CCN(c4c(C)cccc4F)CC3)Cc3cn(C)nc32)n1 [Example 37]", "UNIT ABBREV": "nM", "IC50": 53}
{"MOLECULE": "COC(=O)C(Cn1cc2c(n1)N(Cc1ccccc1C(F)(F)F)C(=O)N(C1CCN(c3c(C)cccc3F)CC1)C2)N(C)C (centres unmarked) [Example 53]", "UNIT ABBREV": "nM", "IC50": 46}
{"MOLECULE": "COC(=O)N1CC[C@@H]1Cn1cc2c(n1)N(Cc1ccccc1C(F)(F)F)C(=O)N(C1CCN(c3c(C)cccc3F)CC1)C2 [Example 133]", "UNIT ABBREV": "nM", "IC50": 22}
{"MOLECULE": "COc1nccc(C)c1N1CCC(N2C(=O)N(Cc3ccccc3C3CC3)c3nn(C4CC4)cc3C2C)CC1 (single isomer, unassigned) [Example 380]", "UNIT ABBREV": "nM", "IC50": 21}
{"MOLECULE": "COc1nccc(C(F)F)c1N1CCC(N2C(=O)N(Cc3ccccc3C(F)(F)F)c3nn(C4CCCCO4)cc3C2C)CC1 (centres unmarked) [Example 343]", "UNIT ABBREV": "nM", "IC50": 57}

1 = COC[C@H](O)Cn1cc2c(n1)N(Cc1ccccc1C(F)(F)F)C(=O)N(C1CCN(c3c(C)cccc3F)CC1)C2 [Example 41]
2 = CC1c2c[nH]nc2N(Cc2ccccc2C(F)(F)F)C(=O)N1C1CCN(c2c(F)cccc2C(F)F)CC1 (single isomer, unassigned) [Example 349]
3 = Cc1cccc(F)c1N1CCC(N2Cc3cn(C4CNC4)nc3N(Cc3ccccc3C(F)(F)F)C2=O)CC1 [Example 92]
4 = COc1nccc(C)c1N1CCC(N2C(=O)N(Cc3ccccc3C(F)(F)F)c3nn(C4CC4)cc3C2C)CC1 (single isomer, unassigned) [Example 344]
5 = Cc1cccc(F)c1N1CCC(N2Cc3cn(C)nc3N(Cc3nnccc3OC(C)C)C2=O)CC1 [Example 267]
**Query** Sequence the entries by IC50, beginning with the highest number. Please reply with the labels ordered as requested. Many thanks.
**Result** 2, 3, 5, 1, 4
(2: 918 nM, 3: 428 nM, 5: 201 nM, 1: 17 nM, 4: 8 nM)

P = Cn1cc2c(n1)N(Cc1ccccc1C(F)(F)F)C(=O)N(C1CCN(c3ccccc3C3CC3)CC1)C2 [Example 258]
Q = COc1nccc(Cl)c1N1CCC(N2C(=O)N(Cc3ccccc3C(F)(F)F)c3nn(C)cc3C2C)CC1 (single isomer, unassigned) [Example 377]
R = CCOc1ccccc1CN1C(=O)N(C2CCN(c3c(C)cccc3F)CC2)Cc2cn(C)nc21 [Example 252]
**Query** Sort entries by IC50 from minimum to maximum value. Please reply with the labels ordered as requested. Many thanks.
**Result** R, P, Q

----------
Molecular target: C5AR1 (Homo sapiens)
Sequence (P21730 1-350): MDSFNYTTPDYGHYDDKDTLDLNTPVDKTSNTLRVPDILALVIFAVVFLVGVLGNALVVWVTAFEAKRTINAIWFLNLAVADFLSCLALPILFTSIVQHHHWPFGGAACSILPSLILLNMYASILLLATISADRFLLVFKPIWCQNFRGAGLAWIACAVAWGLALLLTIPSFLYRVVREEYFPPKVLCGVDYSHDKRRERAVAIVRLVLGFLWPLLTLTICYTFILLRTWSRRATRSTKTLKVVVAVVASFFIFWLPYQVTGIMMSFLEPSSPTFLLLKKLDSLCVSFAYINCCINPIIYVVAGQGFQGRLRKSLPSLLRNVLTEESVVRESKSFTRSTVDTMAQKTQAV
Test: In vitro assay: antagonism of C5a-induced beta-arrestin recruitment (PathHunter) in CHO-K1 C5AR1 beta-arrestin cell line
Details: antagonistic activity, 1-10 nM C5a agonist, geometric mean where several measurements, read-out: C5aR IC50
pIC50: −log10 of the molar value.
QUANTITY: pIC50

{"MOL": "COc1nccc(C)c1N1CCC(N2Cc3nn(CC(C)(F)F)cc3N(Cc3ccccc3C(F)(F)F)C2=O)CC1", "STUDY TARGET": "C5AR1 (Homo sapiens)", "pIC50": 7.42}
{"MOL": "CNc1ccc(C(F)(F)F)c(CN2C(=O)N(C3CCN(c4c(C)cccc4F)CC3)Cc3cn(C)nc32)n1", "STUDY TARGET": "C5AR1 (Homo sapiens)", "pIC50": 7.34}

1 = Cn1cc2c(n1)N(Cc1ccccc1C(F)(F)F)C(=O)N(C1CCN(c3c(F)cccc3C(F)(F)F)CC1)C2
2 = CC(=O)N1CC(n2cc3c(n2)N(Cc2ccccc2C(F)(F)F)C(=O)N(C2CCN(c4c(C)cccc4F)CC2)C3)C1
**Query** Two entries are listed, 1 and 2 . Which one carries the higher pIC50? Bench note: the answer is the label of the chosen record.
**Result** 1
(1: 7.55, 2: 6.07)
